The following compounds are shown together with reported Tmax values.
Test: Tmax in BALB/c mouse at 50 mg/kg, ip
Assay type: ADME, organism-based
Details: in vivo
Write down the numeric answer in min and omit the unit.

MOL_SMILES: CCCCCCCCCCCCC/C=C/[C@@H](O)[C@H](CO)NC(C)=O
Tmax / min: 25

Tmax recorded for this compound, CCCCCCCOc1ccc(CCC(CO)(CO)NC(C)=O)c2ccccc12 , is 45

* * *

Assay: Half life in BALB/c mouse at 10 mg/kg, iv
Assay type: ADME, organism-based
Settings: in vivo
EXPERIMENTAL_ENDPOINT: half-life (h)
A number alone suffices; assume h.

MOL_SMILES: CCCCCCCOc1ccc(CCC(CO)(CO)NC(C)=O)c2ccccc12
UNIT_OF_MEASURE: h
half-life: 3.12

Lab note: CCCCCCCCCCCCC/C=C/[C@@H](O)[C@H](CO)NC(C)=O gave half-life of 5.08

* * *

Experiment: AUC(0 to t) in BALB/c mouse at 50 mg/kg, ip
Assay type: ADME, organism-based
Set-up: dose 50 mg/kg
Settings: in vivo
Let's look at some compounds and their measured AUC(0-t).

MOL_SMILES: CCCCCCCCCCCCC/C=C/[C@@H](O)[C@H](CO)NC(C)=O
AUC(0-t): 4060 ng·h/mL

In the following, a different compound is considered.
Reported AUC(0-t) of CCCCCCCOc1ccc(CCC(CO)(CO)NC(C)=O)c2ccccc12 : 15600 ng·h/mL

* * *

Test: Half life in BALB/c mouse at 50 mg/kg, ip
Format: ADME, organism-based
Conditions: in vivo
EXPERIMENTAL_ENDPOINT: half-life

MOL_SMILES: CCCCCCCCCCCCC/C=C/[C@@H](O)[C@H](CO)NC(C)=O
half-life: 3.99 h

Field: next molecule
# molecule CCCCCCCOc1ccc(CCC(CO)(CO)NC(C)=O)c2ccccc12 ; its half-life = 3.3 h

* * *

Test: AUC(0 to infinity) in BALB/c mouse at 50 mg/kg, ip
Type: ADME, organism-based
Design: time infinity, route intraperitoneal, dose 50 mg/kg
Conditions: in vivo
The molecules listed here are annotated with their AUC(0-inf).
Give the value, in units of ng·h/mL, as a plain number.

MOL_SMILES: CCCCCCCOc1ccc(CCC(CO)(CO)NC(C)=O)c2ccccc12
UNIT_OF_MEASURE: ng·h/mL
AUC(0-inf): 15700

Next up:
According to the records, this molecule CCCCCCCCCCCCC/C=C/[C@@H](O)[C@H](CO)NC(C)=O displays AUC(0-inf) of 4090

* * *

Assay: Antiproliferative activity against human GM00637 cells measured after 72 hrs by sulforhodamine B assay
Format: cell-based
Conditions: GM00637, 72 h
EXPERIMENTAL_ENDPOINT: pIC50
On this scale, pIC50 is minus log10 of a concentration expressed in M (mol/L).

Query CCCCCCCOc1ccc(CCC(CO)(CO)NC(C)=O)c2ccccc12 yields pIC50 of 4.32

* * *

Consider the following compounds and their measured AUC(0-t) readings.
Assay: AUC(0 to t) in BALB/c mouse at 10 mg/kg, iv
Type: ADME, organism-based
Design: dose 10 mg/kg
Settings: in vivo
The reply should be a number in ng·h/mL, with the unit left off.

MOL_SMILES: CCCCCCCCCCCCC/C=C/[C@@H](O)[C@H](CO)NC(C)=O
UNIT_OF_MEASURE: ng·h/mL
OBSERVED_RESULT: 1620

Kindly review the next compound as well.
Briefly, AUC(0-t) measured for CCCCCCCOc1ccc(CCC(CO)(CO)NC(C)=O)c2ccccc12 : 3060

* * *

Tested on: WI-38
Assay: Antiproliferative activity against human WI-38 cells measured after 72 hrs by sulforhodamine B assay
Format: cell-based
Conditions: WI-38, 72 h
EXPERIMENTAL_ENDPOINT: pIC50
Note on units: pIC50 is unitless, being -log10 of a concentration expressed in mol/L.

Entry CCCCCCCOc1ccc(CCC(CO)(CO)NC(C)=O)c2ccccc12 ; assay system WI-38; pIC50 recorded at 4.29

* * *

Assay: AUC(0 to infinity) in BALB/c mouse at 10 mg/kg, iv
Format: ADME, organism-based
Parameters: route intravenous, time infinity, dose 10 mg/kg
Details: in vivo
Below: a set of entries, each annotated with reported AUC(0-inf).
Report the figure in µg·h/mL without appending any unit label.

MOL_SMILES: CCCCCCCCCCCCC/C=C/[C@@H](O)[C@H](CO)NC(C)=O
UNIT_OF_MEASURE: µg·h/mL
AUC(0-inf): 1.63

Let us examine a further case.
Memo: CCCCCCCOc1ccc(CCC(CO)(CO)NC(C)=O)c2ccccc12 , reported AUC(0-inf): 3.06
